molecular target: human LILRB4 (human, UniProt Q8NHJ6 22-448); test: cell-based or functional assay
The reader will find reported Max cell cytotoxicity (%), ADCC on THP-1 cells values listed item by item below.
outcomeMeasure: Max cell cytotoxicity (%), ADCC on THP-1 cells

{"binder": "ch27-G5-E9-B8 (antibody, V domains shown) VH: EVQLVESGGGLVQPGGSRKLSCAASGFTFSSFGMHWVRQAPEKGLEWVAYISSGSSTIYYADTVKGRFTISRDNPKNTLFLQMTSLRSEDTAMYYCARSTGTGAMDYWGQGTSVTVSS VL: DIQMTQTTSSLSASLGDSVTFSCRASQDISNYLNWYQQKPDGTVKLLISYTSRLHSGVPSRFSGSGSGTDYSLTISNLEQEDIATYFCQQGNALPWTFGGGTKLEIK", "resultValue": 16.4}
{"binder": "ch25-E7-A10-H6 (antibody, V domains shown) VH: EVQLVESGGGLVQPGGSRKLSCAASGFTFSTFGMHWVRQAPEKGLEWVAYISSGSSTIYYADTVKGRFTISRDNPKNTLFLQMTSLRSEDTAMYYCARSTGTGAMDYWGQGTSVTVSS VL: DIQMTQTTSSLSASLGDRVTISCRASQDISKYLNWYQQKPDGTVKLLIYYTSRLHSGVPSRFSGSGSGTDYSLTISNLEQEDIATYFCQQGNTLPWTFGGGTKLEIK", "resultValue": 11.7}
{"binder": "ch26-H9-B9-B7 (antibody, V domains shown) VH: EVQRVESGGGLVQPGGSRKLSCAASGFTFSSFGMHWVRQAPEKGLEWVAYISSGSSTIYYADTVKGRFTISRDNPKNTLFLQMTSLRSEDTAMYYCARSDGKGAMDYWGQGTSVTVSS VL: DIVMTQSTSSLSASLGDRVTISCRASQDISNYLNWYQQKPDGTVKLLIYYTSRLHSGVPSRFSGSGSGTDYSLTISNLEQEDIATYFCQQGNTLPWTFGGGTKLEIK", "resultValue": 15.2}
{"binder": "ch10-H9-E3-G3 (antibody, V domains shown) VH: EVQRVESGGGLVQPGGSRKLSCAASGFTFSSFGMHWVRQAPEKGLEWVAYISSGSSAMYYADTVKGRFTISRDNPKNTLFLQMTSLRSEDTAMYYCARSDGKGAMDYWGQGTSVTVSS VL: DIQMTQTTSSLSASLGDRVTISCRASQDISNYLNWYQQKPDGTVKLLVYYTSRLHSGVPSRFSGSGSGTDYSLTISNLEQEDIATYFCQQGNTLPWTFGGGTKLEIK", "resultValue": 16.6}
{"binder": "ch4-E6-E4-B12 (antibody, V domains shown) VH: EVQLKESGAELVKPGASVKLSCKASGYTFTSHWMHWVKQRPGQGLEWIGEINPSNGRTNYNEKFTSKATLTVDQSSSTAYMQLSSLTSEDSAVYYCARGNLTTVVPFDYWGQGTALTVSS VL: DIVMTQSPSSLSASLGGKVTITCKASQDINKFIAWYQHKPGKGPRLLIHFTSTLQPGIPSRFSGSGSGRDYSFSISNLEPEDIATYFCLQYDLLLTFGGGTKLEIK", "resultValue": 14.6}
{"binder": "ch44-F10-B6-D4 (antibody, V domains shown) VH: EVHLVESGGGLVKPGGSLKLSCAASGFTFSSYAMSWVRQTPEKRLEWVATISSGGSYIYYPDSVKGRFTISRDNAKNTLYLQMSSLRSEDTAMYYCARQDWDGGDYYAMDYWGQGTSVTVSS VL: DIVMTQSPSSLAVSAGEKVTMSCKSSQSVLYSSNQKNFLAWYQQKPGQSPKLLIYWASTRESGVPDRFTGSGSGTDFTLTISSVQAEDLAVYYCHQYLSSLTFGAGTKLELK", "resultValue": 0.43}
{"binder": "ch42-C8-A12-F3-D11 (antibody, V domains shown) VH: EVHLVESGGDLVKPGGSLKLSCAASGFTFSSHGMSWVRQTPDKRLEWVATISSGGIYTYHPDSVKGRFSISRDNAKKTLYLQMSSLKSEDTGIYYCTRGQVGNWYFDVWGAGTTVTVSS VL: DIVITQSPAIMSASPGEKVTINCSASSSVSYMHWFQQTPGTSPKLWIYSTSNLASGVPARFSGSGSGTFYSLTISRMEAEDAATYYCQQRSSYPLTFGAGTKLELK", "resultValue": 14.5}

Where these numbers come from: patent US20250361295A1
